# Test system: Tyrosine-protein kinase ABL1 (Homo sapiens), P00519 [H396P]
# Test settings: at 0.1 µM
inhibition by entry:

{"Structure smiles": "Cc1ccc2c(-c3ccnc(Nc4ccc5c(c4)OCCO5)n3)c(-c3ccc(C(F)(F)F)cc3)nn2n1", "Reading unit": "%", "inhibition": 2.14}
{"Structure smiles": "Cc1cc(O)cc(C)c1/C=C/c1cncc(C(=O)N(C)C)c1", "Reading unit": "%", "inhibition": 4.36}
{"Structure smiles": "CN(C)C(=O)O[C@@H]1CN[C@@H](C#Cc2cc3ncnc(Nc4ccc(OCc5cccc(F)c5)c(Cl)c4)c3s2)C1", "Reading unit": "%", "inhibition": -0.68}
{"Structure smiles": "NS(=O)(=O)c1ccc(NC=C2C(=O)Nc3ccc4ncsc4c32)cc1", "Reading unit": "%", "inhibition": 10.9}
{"Structure smiles": "Cc1ccc2c(c1)/C(=N/Nc1ccc(S(N)(=O)=O)cc1)C(=O)N2", "Reading unit": "%", "inhibition": -0.31}
